Tgt: DRB10404 (DR4w14) (Homo sapiens, UniProt P01903+P01911, A100R/A169T/F76Y/I96L/K127E/L162R/M171V/N62H/P40V/Q125Y/R42H/S133A/S149N/S66Y/V209L/W38E)
Construct: used as sources of human HLA class II molecules; endogenous in cells; host or cells: BIN40 (EBV-transformed homozygous B cell line)
Run description: Class II peptide-binding assay, DR4w14;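 also: unlabeled peptides compete with a radiolabeled probe for binding to affinity-purified HLA-DR, neutral pH, class II amount titrated to bind a small fraction of label, IC50 approximates Kd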
Condition set: read-out: DR4w14 nM (In IC50 Format); purified HLA DR4w14
Square brackets hold non-standard residues; d marks the D form. Peptide text beside a SMILES is read from it.
Property measured: pIC50
Answer as the number alone; pIC50 is minus log10 of concentration in mol/L.

Prompt line: Please give the documented pIC50 of CC(C)C[C@H](NC(=O)[C@@H](NC(=O)[C@@H](NC(=O)[C@H](CCC(N)=O)NC(=O)[C@H](CCCNC(=N)N)NC(=O)[C@H](CCC(N)=O)NC(=O)[C@H](Cc1ccccc1)NC(=O)[C@H](CCCNC(=N)N)NC(=O)[C@H](C)NC(=O)[C@H](N)Cc1ccc(O)cc1)[C@@H](C)O)[C@@H](C)O)C(=O)N[C@@H](CCCCN)C(=O)N[C@@H](C)C(=O)N[C@@H](C)C(=O)N[C@H](C)C(N)=O [Peptide 781.09] (H-[dY]ARFQRQTTLKAA[dA]-NH2)
Response line: 8.13

Prompt line: Please give the documented pIC50 of CC(C)C[C@H](NC(=O)[C@@H](NC(=O)[C@@H](NC(=O)[C@H](CCC(N)=O)NC(=O)[C@H](CCCNC(=N)N)NC(=O)[C@H](CCC(N)=O)NC(=O)[C@H](Cc1ccccc1)NC(=O)[C@H](C)NC(=O)[C@H](C)NC(=O)[C@H](N)Cc1ccc(O)cc1)[C@@H](C)O)[C@@H](C)O)C(=O)N[C@@H](CCCCN)C(=O)N[C@@H](C)C(=O)N[C@@H](C)C(=O)N[C@H](C)C(N)=O [Peptide 781.16] (H-[dY]AAFQRQTTLKAA[dA]-NH2)
Response line: 8.15

Prompt line: Please give the documented pIC50 of CSCC[C@H](N)C(=O)NCC(=O)N[C@@H](CCC(N)=O)C(=O)N[C@@H](CC(N)=O)C(=O)N[C@@H](CC(C)C)C(=O)N[C@@H](CO)C(=O)N[C@H](C(=O)N[C@@H](CO)C(=O)N[C@@H](CC(N)=O)C(=O)N1CCC[C@H]1C(=O)N[C@@H](CC(C)C)C(=O)NCC(=O)N[C@@H](Cc1ccccc1)C(=O)N[C@@H](Cc1ccccc1)C(=O)N1CCC[C@H]1C(=O)N[C@@H](CC(=O)O)C(=O)N[C@@H](Cc1c[nH]cn1)C(=O)O)[C@@H](C)O [Peptide 800.01]
Response line: 5.70

Prompt line: Please give the documented pIC50 of CC(C)C[C@H](NC(=O)[C@@H](NC(=O)[C@@H](NC(=O)[C@H](CCC(N)=O)NC(=O)[C@H](CCCNC(=N)N)NC(=O)[C@H](CCC(N)=O)NC(=O)[C@@H](N)Cc1ccccc1)[C@@H](C)O)[C@@H](C)O)C(=O)N[C@@H](CCCCN)C(=O)N[C@@H](C)C(=O)N[C@@H](C)C(=O)N[C@H](C)C(N)=O [Peptide 781.06] (H-FQRQTTLKAA[dA]-NH2)
Response line: 7.86

Prompt line: Please give the documented pIC50 of CSCC[C@H](NC(=O)[C@H](CC(C)C)NC(=O)[C@H](CCC(=O)O)NC(=O)CNC(=O)[C@H](Cc1c[nH]c2ccccc12)NC(=O)[C@@H](N)CS)C(=O)N[C@H](C(=O)N[C@@H](CC(C)C)C(=O)N[C@@H](C)C(=O)N[C@H](C(=O)N[C@@H](Cc1c[nH]c2ccccc12)C(=O)N[C@H](C(=O)NCC(=O)N[C@H](C(=O)N[C@@H](CC(N)=O)C(=O)N[C@@H](CC(C)C)C(=O)N[C@@H](CCC(=O)O)C(=O)N[C@@H](CC(=O)O)C(=O)O)C(C)C)C(C)C)[C@@H](C)O)[C@@H](C)O [Peptide 802.02]
Response line: 7.04

Prompt line: Please give the documented pIC50 of CC(C)C[C@H](NC(=O)[C@@H](NC(=O)[C@@H](NC(=O)[C@H](CCC(N)=O)NC(=O)[C@H](CCCCN)NC(=O)[C@H](CC(=O)O)NC(=O)[C@H](Cc1ccccc1)NC(=O)[C@@H](CCCNC(=N)N)NC(=O)[C@H](C)NC(=O)[C@H](N)Cc1ccc(O)cc1)[C@@H](C)O)[C@@H](C)O)C(=O)N[C@@H](CCCCN)C(=O)N[C@@H](C)C(=O)N[C@@H](C)C(=O)N[C@H](C)C(=O)O [Peptide 781.19] (H-[dY]A[dR]FDKQTTLKAA[dA]-OH)
Response line: 7.02
